# measured-target: T1, cynomolgus MCSP D3 (cynomolgus, UniProt Q6UVK1 1582-2224 (human entry), limits assumed)
# T1 construct: also called Cyno MCSP; cynomolgus homologue
# T1 chain: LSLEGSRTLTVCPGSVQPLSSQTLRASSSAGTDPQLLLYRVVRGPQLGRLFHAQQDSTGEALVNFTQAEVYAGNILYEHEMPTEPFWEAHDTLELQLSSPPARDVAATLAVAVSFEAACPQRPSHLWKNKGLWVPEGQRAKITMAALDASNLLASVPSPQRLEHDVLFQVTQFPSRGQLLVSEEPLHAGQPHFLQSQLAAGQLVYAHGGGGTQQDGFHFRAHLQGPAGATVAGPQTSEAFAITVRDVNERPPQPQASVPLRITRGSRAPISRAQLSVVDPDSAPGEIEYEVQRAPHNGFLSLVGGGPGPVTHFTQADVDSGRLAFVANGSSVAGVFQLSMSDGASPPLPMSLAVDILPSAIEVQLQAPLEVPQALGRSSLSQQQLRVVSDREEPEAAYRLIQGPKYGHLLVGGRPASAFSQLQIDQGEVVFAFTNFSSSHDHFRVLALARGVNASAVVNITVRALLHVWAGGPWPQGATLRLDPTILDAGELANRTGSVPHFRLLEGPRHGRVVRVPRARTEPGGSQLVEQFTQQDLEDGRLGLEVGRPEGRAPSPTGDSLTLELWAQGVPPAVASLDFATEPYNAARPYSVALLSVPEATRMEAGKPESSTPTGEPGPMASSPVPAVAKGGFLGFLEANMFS
# assay-protocol: SPR ProteOn XPR36, 25 C; IgG captured via anti-human F(ab')2, MCSP D3 as analyte
property: Kd (nM)
Form entry: value (nM) — number only.

For reference, reported Kd for M4-3(C1)/ML2(E10) IgG (antibody, V domains shown, Human IgG1) VH: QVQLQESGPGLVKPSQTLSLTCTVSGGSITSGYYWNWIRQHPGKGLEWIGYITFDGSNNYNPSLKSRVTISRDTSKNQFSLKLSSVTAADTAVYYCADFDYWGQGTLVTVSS VL: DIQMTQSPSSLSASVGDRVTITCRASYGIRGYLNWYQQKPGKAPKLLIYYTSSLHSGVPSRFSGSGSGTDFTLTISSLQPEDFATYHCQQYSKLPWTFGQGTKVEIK stands at 0.6

For reference, reported Kd for M4-3(B8)/ML2 IgG (antibody, V domains shown, Human IgG1) VH: QVQLQESGPGLVKPSQTLSLTCTVSGGSITSGYYWNWIRQHPGKGLEWIGYITFDGRNNYNPSLKSRVTISRDTSKNQFSLKLSSVTAADTAVYYCADFDYWGQGTLVTVSS VL: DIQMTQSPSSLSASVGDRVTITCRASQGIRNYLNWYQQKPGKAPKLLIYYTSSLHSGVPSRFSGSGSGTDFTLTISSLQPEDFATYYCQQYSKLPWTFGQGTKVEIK stands at 1

For reference, reported Kd for M4-3/ML2(E10/G3) IgG (antibody, V domains shown, Human IgG1) VH: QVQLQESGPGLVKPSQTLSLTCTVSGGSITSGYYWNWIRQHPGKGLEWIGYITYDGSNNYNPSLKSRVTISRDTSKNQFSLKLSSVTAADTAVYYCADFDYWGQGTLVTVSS VL: DIQMTQSPSSLSASVGDRVTITCRASYGIRGYLNWYQQKPGKAPKLLIYYTSSLHSGVPSRFSGSGSGTDFTLTISSLQPEDFATYHCQQYSALPWTFGQGTKVEIK stands at 0.9

For reference, reported Kd for M4-3(D6)/ML2 IgG (antibody, V domains shown, Human IgG1) VH: QVQLQESGPGLVKPSQTLSLTCTVSGGSITSGYYWNWIRQHPGKGLEWIGYITFDGKNNYNPSLKSRVTISRDTSKNQFSLKLSSVTAADTAVYYCADFDYWGQGTLVTVSS VL: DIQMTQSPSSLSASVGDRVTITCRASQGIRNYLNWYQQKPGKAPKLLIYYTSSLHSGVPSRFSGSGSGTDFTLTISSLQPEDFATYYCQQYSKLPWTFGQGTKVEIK stands at 1

For reference, reported Kd for M4-3(C1)/ML2 IgG (antibody, V domains shown, Human IgG1; copies: 2 + 2) VH: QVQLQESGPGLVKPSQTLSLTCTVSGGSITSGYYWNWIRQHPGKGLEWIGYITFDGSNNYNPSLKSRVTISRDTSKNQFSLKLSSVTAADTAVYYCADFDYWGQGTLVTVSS VL: DIQMTQSPSSLSASVGDRVTITCRASQGIRNYLNWYQQKPGKAPKLLIYYTSSLHSGVPSRFSGSGSGTDFTLTISSLQPEDFATYYCQQYSKLPWTFGQGTKVEIKR stands at 0.8

This collection of values is drawn from patent US20140242080A1.
